System: 496974-208-R-J2-PDC complex spheroids, growth % test/control;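 further: spheroids exposed to the drugs for 7 days before readout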
Test: Anticancer human tumor 496974-208-R-J2-PDC patient-derived pancreatic carcinoma cell line growth inhibition [CLK]; active means viability on the fitted dose curve at most 10% of control; inactive means the rest
Conditions: second compound 10 µM; first compound 0.1 µM
Possible outcomes: True for active, False for inactive

- compound: "O=c1[nH]cc(F)c(=O)[nH]1 + CNC(=O)c1ccc(Nc2nc(OC3CCCC3)c3c(-c4ccc5nc(C)oc5c4)c[nH]c3n2)c(OC)c1"
  qualitative-label: "False"
- compound: "COC1C=CCC(C)C(C)S(=O)(=O)NC(=O)c2ccc3c(c2)N(CC2CCC21)CC1(CCCc2cc(Cl)ccc21)CO3 (stereo unspecified) + CNC(=O)c1ccc(Nc2nc(OC3CCCC3)c3c(-c4ccc5nc(C)oc5c4)c[nH]c3n2)c(OC)c1"
  qualitative-label: "False"
- compound: "COc1ccc([C@@H](O)c2cc(-c3ncnc4cc(N5CCOCC5)ccc34)c(F)cc2Cl)nn1 + CNC(=O)c1ccc(Nc2nc(OC3CCCC3)c3c(-c4ccc5nc(C)oc5c4)c[nH]c3n2)c(OC)c1"
  qualitative-label: "False"
- compound: "CC1(C)CCC(CN2CCN(c3ccc(C(=O)NS(=O)(=O)c4ccc(NCC5CCOCC5)c([N+](=O)[O-])c4)c(Oc4cnc5[nH]ccc5c4)c3)CC2)=C(c2ccc(Cl)cc2)C1 + CN1CCN(c2cc(C(=O)Nc3cc4cc(-c5cnn(C)c5)ccc4cn3)ccn2)CC1"
  qualitative-label: "True"
- compound: "CC1(C)CCC(CN2CCN(c3ccc(C(=O)NS(=O)(=O)c4ccc(NCC5CCOCC5)c([N+](=O)[O-])c4)c(Oc4cnc5[nH]ccc5c4)c3)CC2)=C(c2ccc(Cl)cc2)C1 + CNC(=O)c1ccc(Nc2nc(OC3CCCC3)c3c(-c4ccc5nc(C)oc5c4)c[nH]c3n2)c(OC)c1"
  qualitative-label: "False"
- compound: "CCCS(=O)(=O)Nc1ccc(F)c(C(=O)c2c[nH]c3ncc(-c4ccc(Cl)cc4)cc23)c1F + CN1CCN(c2cc(C(=O)Nc3cc4cc(-c5cnn(C)c5)ccc4cn3)ccn2)CC1"
  qualitative-label: "True"
- compound: "CCN1CCN(Cc2ccc(Nc3ncc(F)c(-c4cc(F)c5nc(C)n(C(C)C)c5c4)n3)nc2)CC1 + CNC(=O)c1ccc(Nc2nc(OC3CCCC3)c3c(-c4ccc5nc(C)oc5c4)c[nH]c3n2)c(OC)c1"
  qualitative-label: "False"
- compound: "CC1COCCN1c1cc(C2(S(C)(=N)=O)CC2)nc(-c2ccnc3[nH]ccc23)n1 (stereo unspecified) + CN1CCN(c2cc(C(=O)Nc3cc4cc(-c5cnn(C)c5)ccc4cn3)ccn2)CC1"
  qualitative-label: "True"
- compound: "CCc1c2c(nc3ccc(O)cc13)-c1cc3c(c(=O)n1C2)COC(=O)[C@]3(O)CC + CNC(=O)c1ccc(Nc2nc(OC3CCCC3)c3c(-c4ccc5nc(C)oc5c4)c[nH]c3n2)c(OC)c1"
  qualitative-label: "False"
- compound: "C#Cc1c(F)ccc2cc(O)cc(-c3ncc4c(N5CC6CCC(C5)N6)nc(OCC56CCCN5CC(F)C6)nc4c3F)c12 (stereo unspecified) + CNC(=O)c1ccc(Nc2nc(OC3CCCC3)c3c(-c4ccc5nc(C)oc5c4)c[nH]c3n2)c(OC)c1"
  qualitative-label: "False"
- compound: "CCN1CCN(Cc2ccc(Nc3ncc(F)c(-c4cc(F)c5nc(C)n(C(C)C)c5c4)n3)nc2)CC1 + CN1CCN(c2cc(C(=O)Nc3cc4cc(-c5cnn(C)c5)ccc4cn3)ccn2)CC1"
  qualitative-label: "True"
